# TESTED_TARGET: triple Tudor domain (3TD) of SETDB1, wildtype, as used in solution (ITC, NMR, crystals) (UniProt Q15047 190-410)
# MEASUREMENT_NOTES: ITC
Where no end group is shown, it is not given here.
The following binders are shown together with reported Kd values.
REPORTED_METRIC: Kd (µM)

BINDER: KQTARK(Me2)STGGK(Ac)APRKQ [H3K9me2/K14ac peptide in solution (ITC; crystal with W358A), limits not stated]
REPORTED_METRIC: Kd
MEASURE_UNIT: µM
MEASURED_NUMBER: 9.3
--
BINDER: KQTARK(Me3)STGGK(Ac)APRKQ [H3K9me3/K14ac peptide in solution (ITC; crystals)]
REPORTED_METRIC: Kd
MEASURE_UNIT: µM
MEASURED_NUMBER: 23.9
--
BINDER: KQTARK(Me)STGGK(Ac)APRKQ [H3K9me1/K14ac peptide in solution (ITC)]
REPORTED_METRIC: Kd
MEASURE_UNIT: µM
MEASURED_NUMBER: 29.4
